Tested on: NCI-H522 lung
Assay: NCI tumour cell line growth inhibition, 48 h
Quantity Name: GI50

* O=C(/C=C\c1cccc([N+](=O)[O-])c1)/C=C/c1cccc([N+](=O)[O-])c1 | 2790 nM
* COc1cccc(OC(=O)c2ccc(C(F)(F)F)nc2Nc2cc(Cl)ccc2C)c1 | 10000 nM
* O=C(NN1C(=O)CSC12CCCCC2)c1[nH]c2ccc(Br)cc2c1-c1ccccc1 | 18700 nM
* O=C(Nc1ccc(OCc2nnc(-c3ccc(Cl)cc3)o2)c(F)c1)Nc1ccc(Cl)c(C(F)(F)F)c1 | 2270 nM
* O=C1/C(=C/c2ccccc2[N+](=O)[O-])Cc2ccccc21 | 1700 nM

---

Tested on: SK-MEL-2 melanoma
Assay: NCI tumour cell line growth inhibition, 48 h; in the data active = GI50 below about 0.43 µM; inactive = the rest
Possible outcomes: active, inactive

- O=C1c2c(c3c4ccccc4[nH]c3c3ccc4ccccc4c23)C(=O)N1CCN1CCNCC1: inactive
- CCCCCCCCCCCCCCCCCC[n+]1ccc2c(C)c3c(c(C)c2c1)c1cc(O)ccc1n3CC: inactive
- O=C(Nc1ccc(OCc2nnc(-c3ccc(Cl)cc3)o2)c(F)c1)Nc1ccc(Cl)c(C(F)(F)F)c1: inactive
- CCOC(=O)C1=C(C)N(c2ccc(Cl)cc2)[C@]2(C#N)C(O)=C(Cl)C(Cl)=C(O)[C@]12C#N: inactive
- Fc1ccc(/C=N/n2c(-c3ccc(F)c(Cl)c3)nn(CNc3ccccc3C(F)(F)F)c2=S)cc1: inactive
- O=C(/C=C\c1cccc([N+](=O)[O-])c1)/C=C/c1cccc([N+](=O)[O-])c1: inactive
- COc1ccc(-c2nc(Nc3cc(C)[nH]n3)c3ccccc3n2)cc1: inactive
- Nc1nc(OCc2ccccc2)c2[nH]cnc2n1: inactive
- COc1cc(N2C(=O)[C@H](O)C2c2ccc(SC)cc2)cc(OC)c1OC (some centres undefined): active
- OCC1OC(n2cnc3c(N/N=C\c4ccccn4)ncnc32)C(O)C1O (centres undefined): inactive
- CO/N=C(/C)c1ccc(NC(=O)CSc2nnc(-c3ccncc3)n2-c2ccccc2)cc1: inactive
- C1CCC([PH+](C2CCCCC2)C2CCCCC2[PH+](C2CCCCC2)C2CCCCC2)CC1.[Au].[CH-]1CCCCC1CC1CCCC[N-]1 (centres undefined): active
- CC(C)C[C@H](NC(=O)CNC(=O)c1cc(Cl)ccc1Cl)B1OC(=O)CC(CC(=O)O)(C(=O)O)O1 (some centres undefined): active
- COc1ccc2cc1Oc1ccc(cc1)C[C@H]1c3c(cc4c(c3Oc3cc5c(cc3OC)CCN(C)[C@@H]5C2)OCO4)CCN1C: inactive
- c1cnn2ncc(-c3ccnc(NCCCN4CCOCC4)n3)c2c1: inactive
- CC(=O)OC12C=C(C)C(C(C)C1)C1C(=O)N(CCN3CCOCC3)C(=O)C12 (centres undefined): inactive
- COc1ccc2c(c1)N(CCO)C1=C(C(=O)OC1)C2c1cccc(F)c1 (centres undefined): inactive
- O=C1c2cccnc2C(=O)c2c1c(C(=O)NCCCN1CCCCC1)c1ccccn21: inactive
- C/C(=C\c1ccc2ccccc2c1)[N+](=O)[O-]: inactive

---

System: IGROV1 ovarian
Experiment: NCI tumour cell line growth inhibition, 48 h
Where a SMILES comes first, the peptide text is derived from it. The star is where a group is joined. Boc = CC(C)(C)OC(=O)*
Quantity Name: TGI

- O=C(/C=C\c1cccc([N+](=O)[O-])c1)/C=C/c1cccc([N+](=O)[O-])c1: 6.3 µM
- CC(C)(C)OC(=O)NC(Cc1ccc(O)cc1)C(=O)N1CCCC1C(=O)O (stereo not drawn) (Boc-Tyr-Pro-OH; configuration not given here): > 100 µM
- Cn1c(=O)c2c(nc3n2CC(=O)N3CCCCl)n(C)c1=O: > 100 µM
- O=C1CCC(N2Cc3cc(CNC(=O)C(F)(F)c4ccc(Cl)cc4)ccc3C2=O)C(=O)N1 (stereo not drawn): > 100 µM
- O=[N+]([O-])c1ccc(C=Cc2ccccc2)cc1.[C-]#[O+].[C-]#[O+].[C-]#[O+].[Cr]: > 100 µM
- COC(=O)[C@H](CCSC)NC(=O)N[C@H](C)c1ccccc1: > 100 µM
- CC(C)C[C@H](NC(=O)CNC(=O)c1cc(Cl)ccc1Cl)B1OC(=O)CC(CC(=O)O)(C(=O)O)O1 (stereo partly drawn): > 41.8 µM
- O=C1c2ccccc2-c2cc([N+](=O)[O-])c([N+](=O)[O-])cc21: 2.84 µM
- CCC(C=O)P1(=O)OC(C)(C)CN1C(C)(C)C (stereo not drawn): > 100 µM
- O=C1C(Cl)=C(Nc2ccc(S(=O)(=O)O)cc2)C(=O)c2ccccc21: > 100 µM
- Cc1ccc(C2OC(COCc3ccc(Cl)cc3)C(OCc3ccc(Cl)cc3)C2O)cc1 (stereo not drawn): 35.5 µM
- Cc1cc(S(=O)(=O)/N=C(/N)Nc2ccccc2O)c(SCc2ccccc2)cc1Cl: 26.9 µM
- O=C(NN1C(=O)CSC12CCCCC2)c1[nH]c2ccc(Br)cc2c1-c1ccccc1: 28.6 µM
- COc1cccc(OC)c1C(=O)OCc1ccccc1: > 100 µM
- COc1ccc(C=O)c([N+](=O)[O-])c1: > 100 µM
- CC1(C)C=Cc2c(cc(O)c3c(=O)c4cc(Cl)ccc4[nH]c23)O1: > 10 µM
- COc1nc(=O)n(COC(CO)CN2C(=O)c3ccccc3C2=O)cc1Cc1cccc(OCc2ccccc2)c1 (stereo not drawn): 58.8 µM
- O=C(Nc1nc2ccc([N+](=O)[O-])cc2s1)C(=O)C(C(=O)c1ccccc1F)C1OC(=O)c2ccccc21 (stereo not drawn): > 100 µM
- CC1CC(C)C(C#N)N(C)c2ccccc21 (stereo not drawn): > 100 µM
- CCOC(=O)C1C(c2ccc3c(c2)OCO3)c2c([nH][nH]c2=O)CC1(C)O (stereo not drawn): > 100 µM
- CN1c2ccccc2C(=O)NC12CCN(CCCC(=O)c1ccc(F)cc1)CC2: > 100 µM
- COc1ccc(-c2nc(Nc3cc(C)[nH]n3)c3ccccc3n2)cc1: 7.12 µM
- C/C(=N\Nc1ccc([N+](=O)[O-])cc1[N+](=O)[O-])c1sc(-n2nc(-c3ccccc3)cc2-c2ccccc2)nc1C: > 100 µM
- O=C(NNCC(O)COc1ccccc1)c1ccccc1 (stereo not drawn): > 100 µM
- O=S(=O)(c1ccc(Cl)cc1)C(Cl)(Cl)Cl: 23.5 µM
- C[C@@H]1CN(Cc2ccc(F)cc2)[C@@H](C)CN1C(=O)c1cc2c(C(=O)C(=O)N(C)C)cn(C)c2cc1Cl: 49.7 µM
- CC(C)(C)c1cc2c(OC/C=C/c3ccccc3)c(c1)Cc1cc(C(C#N)(OC/C=C/c3ccccc3)OC/C=C/c3ccccc3)cc(c1OC/C=C\c1ccccc1)Cc1cc(C(C)(C)C)cc(c1OC/C=C/c1ccccc1)Cc1cc(C(C#N)(OC/C=C\c3ccccc3)OC/C=C/c3ccccc3)cc(c1OC/C=C\c1ccccc1)C2 (stereo not drawn): > 100 µM
- O=C(NC1=C(Cl)C(=O)c2ccccc2C1=O)c1ccc(F)cc1: 11.5 µM
- C=CC[C@@H](N)C(=O)N(C)[C@@H](C)[C@@H](O)c1ccccc1: > 100 µM
- COc1ccc(-c2cc(Cc3cccs3)c(=O)[nH]n2)cc1: > 100 µM
- C[n+]1ccc(/C2=C3\C=CC(=N3)/C(c3cc[n+](C)cc3)=c3/cc/c([nH]3)=C(\c3cc[n+](C)cc3)C3=N/C(=C(/c4cc[n+](C)cc4)C4C=CC2N4)C=C3)cc1: > 100 µM
- COc1cccc(NC(=O)CSc2nnc(-c3ccc(NC(C)=O)cc3)o2)c1: > 100 µM
- O=C1NC(=O)C(N2C(=O)c3ccccc3C2=O)CC1O (stereo not drawn): > 100 µM
- N#CC1C(=O)NC23CCCCC2C1c1ccccc1O3 (stereo not drawn): > 100 µM
- COc1ccc(-c2[nH]c3ccccc3c2-c2ccc(OC)cc2)cc1: 27.5 µM
- CCCc1c(-c2ccccc2)[nH]c2ccccc2c1=O: > 100 µM
- CC(=O)NC(CCCNC(=O)N(CCCl)N=O)C(=O)NCc1ccccc1 (stereo not drawn): > 100 µM
- COc1cc2c(cc1OC)C1C=NC(C2)c2cc(OC)c(OC)cc21 (stereo not drawn): > 100 µM

---

System: OVCAR-4 ovarian
Experiment: NCI tumour cell line growth inhibition, 48 h
Where a SMILES comes first, the peptide text is derived from it. The star is where a group is joined. Boc = CC(C)(C)OC(=O)*
Quantity Name: TGI

* O=C1NC(=O)C2C(=O)NC(=O)C1C2c1c(Cl)cccc1Cl (stereo not drawn) | > 100 µM
* CC(C)(C)OC(=O)NC(Cc1ccc(O)cc1)C(=O)N1CCCC1C(=O)O (stereo not drawn) (Boc-Tyr-Pro-OH; configuration not given here) | > 100 µM
* O=c1[nH]cc(COCCCO)c(=O)[nH]1 | > 100 µM
* CCCCn1c(N)c(-c2nc3ccccc3o2)sc1=S | 19.9 µM
* O=C(/C=C/c1ccccc1)CCN1CCOCC1 | 42.5 µM
* CO/C(=N\N=C\c1ccc(OC)c(OC)c1)c1ccncc1 | > 10 µM
* O=C1CCCN1C(=O)CS(=O)(=O)c1ccccc1 | > 100 µM
* O=C1OCC2=C1C(c1ccccc1)c1cc3c(cc1N2)OCO3 (stereo not drawn) | > 48.3 µM
* COC1C=COC2(C)Oc3c(C)c(O)c4c(c3C2=O)/C(=N/C2CCC(O)OC2C)C=C(NC(=O)/C(C)=C\C(=O)C2CC2C(O)C(C)C(O)C(C)C(OC(C)=O)C1C)C4=O (stereo not drawn) | 10.6 µM
* C[C@]12CC[C@@H]3c4cc(OCC(F)(F)F)c(O)cc4CC[C@H]3[C@@H]1CC[C@@H]2O | > 53.1 µM
* OCCNCCN1CCN(CCCN2c3ccccc3Sc3ccc(C(F)(F)F)cc32)CC1 | 48.8 µM
* CC#CCC1CCC(OCC)=CC1=O (stereo not drawn) | > 100 µM
* CC1=NN(C(=O)c2ccncc2)C(=O)C1 | > 100 µM
* CC(=O)NC(CCCNC(=O)N(CCCl)N=O)C(=O)NCc1ccccc1 (stereo not drawn) | > 100 µM
* CN1C(=O)N(C)C2C1NN=c1s/c(=C\c3ccc(C(F)(F)F)cc3)c(=O)n12 (stereo not drawn) | > 100 µM
* COc1ccc(C=O)c([N+](=O)[O-])c1 | > 100 µM
* O=c1nc(NC2CCCCO2)ccn1CCO (stereo not drawn) | > 100 µM
* Fc1ccc(C2SCc3nc4ccccc4n32)c(F)c1 (stereo not drawn) | > 100 µM
* Cc1cc(S(=O)(=O)/N=C(/N)Nc2ccccc2O)c(SCc2ccccc2)cc1Cl | 34.9 µM
* COCc1nc(N)nc(N2N=C(C)CC2(C)C)n1 | > 100 µM
* O=C(/C=C/c1cc2ccccc2[nH]c1=O)/C=C/c1cc2ccccc2[nH]c1=O | > 100 µM
* CCC(C=O)P1(=O)OC(C)(C)CN1C(C)(C)C (stereo not drawn) | > 100 µM
* C=C(Br)CNC(=O)Nc1ccc(Cl)c(Cl)c1 | > 100 µM
